Tested on: PXR homodimer (NR concentration 270 nM)
Test protocol: PBM binding z-score (relative to random genomic background probes); higher = stronger binding; sequences stand for … in GC…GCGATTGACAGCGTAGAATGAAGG
# class assignment by measured PBM binding z-score: L (below -0.2), M (-0.2 to below 0.6), H (0.6 or more)

For orientation, consider the following solved cases.
Polymer sequence	Class name
TCTAGTTGGTCACGGAGGTCTCACACGACGGGTA	L
AATACAGGGTCATCGTAGTCCAGAGTACGCACAG	H
TCTAGCAGGCCAGAGGGTCACTCTAGAGGTACGG	L
TCTAGCAGGCCAGAGCGTCACTCAAGAGGTACGG	L
ATCGAAAGGTCTACGAGGTGAGTATACACCGTTT	M

stdin: Pick a category. Item: GCATATAGGTAATACAAGTTGAAAGTCCGATTGT
stdout: H

stdin: Pick a category. Item: CCTCAGAGGACAGAAGGTCAGAGCTGTCCGCTTT
stdout: M

stdin: Pick a category. Item: ACTATTAGTTGAGACGAGGGCAAGCGATAGGTTG
stdout: M

stdin: Pick a category. Item: CCGACTGGGGCAGAGGTTACCATACTCAGTACGA
stdout: L

stdin: Pick a category. Item: CCGACTGGGGCAAGGTAACCATAACGCACAGCCA
stdout: L

stdin: Pick a category. Item: ATCGAAAGGTCGTGAGGTTAGTATACAGAAAGGC
stdout: H

stdin: Pick a category. Item: AGTCACAGTTCAGGACGAGGTAACGTAAAGCACG
stdout: M

stdin: Pick a category. Item: GCTGCGAGGTCAGGTTGGTCAGCTAACGGGTACG
stdout: M

stdin: Pick a category. Item: CTCGAAAGGTCGGGTGAGGTGAGTATACGGATAA
stdout: M

stdin: Pick a category. Item: CAAACTAGGTCAATGGTCAAAGTCGAGCCAACCA
stdout: M

stdin: Pick a category. Item: TAGCCTAGGTCAGGCGGGCCAGTATAGTGTCGGC
stdout: L

stdin: Pick a category. Item: ATACCAAGGAGATCGTGAGGTCGTTGATACTAAC
stdout: H

stdin: Pick a category. Item: CCGACTAGGGCAGAAAGGTTACCATACCATCCGG
stdout: M

stdin: Pick a category. Item: GCTGCTAGGTCAATTGATGGTCAGCTAAAGCTCG
stdout: L

stdin: Pick a category. Item: CCTACTGAGCCATCAGGTCATTGATATCAACGTT
stdout: H

stdin: Pick a category. Item: TCTAGATGGTCACGGAGGTCACACACGACGGGTA
stdout: H

----------
Tested on: VDR:RXRa (NR concentration 270 nM, RXRa partner concentration 90 nM)
Test protocol: PBM binding z-score (relative to random genomic background probes); higher = stronger binding; sequences stand for … in GC…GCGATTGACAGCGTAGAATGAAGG
# class assignment by measured PBM binding z-score: low-valued = under 1, mid-valued = from 1 up to 4, high-valued = 4 and over

Polymer sequence	Class name
ATCTCTAGGTAAGACTCAGTTCAGTGAGGAACGC	low-valued
CCTGCTAGGTCATAGTCAGCTAATCTACAGTATG	mid-valued
TAGCCTAGGTCAGATCGGGTCAGTATACGCTATA	mid-valued

stdin: Pick a category. Item: TCTATTTGTTGAAGGGCAACCGACGAGTCCGTTT
stdout: mid-valued

stdin: Pick a category. Item: CAAACTAGGTCACGAAAGGTCAAAGTAGAATGAC
stdout: high-valued

stdin: Pick a category. Item: CCTTACGGGTAAAGGTTATAGCACGGGTGGTACG
stdout: low-valued

stdin: Pick a category. Item: CCTAGCTGGTCAGGAGGTCACACACCGGATATGA
stdout: mid-valued

stdin: Pick a category. Item: TCTAGTTGGTCAAAGGTTACACACTCGAAATGCG
stdout: mid-valued
